biological target: human PD-1 on Jurkat Effector cells of the PD-1/PD-L1 blockade bioassay (Promega, Cat #J1255) (human, UniProt Q15116 25-288); experiment: cell-based or functional assay
Sequence (Q15116 25-288): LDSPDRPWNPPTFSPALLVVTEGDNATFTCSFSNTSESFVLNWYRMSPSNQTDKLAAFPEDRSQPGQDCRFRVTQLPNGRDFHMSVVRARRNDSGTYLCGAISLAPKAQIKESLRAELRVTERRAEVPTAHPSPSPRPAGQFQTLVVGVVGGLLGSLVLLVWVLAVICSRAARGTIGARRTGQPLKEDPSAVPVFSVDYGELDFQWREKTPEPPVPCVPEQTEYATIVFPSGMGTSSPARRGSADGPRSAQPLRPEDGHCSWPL
OBSERVATION_TYPE: luminescence (RLU), PD-1/PD-L1 blockade bioassay

binder="OMC.1.D6-hIgG4 (antibody, V domains shown) VH: EVQLLESGGGLVQPGGSLRLSCAASGFTFSDYYMSWVRQAPGKGLEWVSAISSSGGTIFYADSVKGRFIISRDNSKNTLYLQMNSLRAEDTAVYYCAKHKWNDVYYDAMDVWGQGTTVTVSS VL: QSVLTQPPSASGTPGQRVTISCSGSNSNIGRNLVNWYQQLPGTAPKLLIYTVDQRPSGVPDRFSGSKSGTSASLAISGLASEDEADYYCAAWDSSLNSWVFGGGTKLTVLG" measured_result="~3000 RLU"

Pending binder:
Give the measured luminescence (RLU), PD-1/PD-L1 blockade bioassay of 1H9-hIgG4 (antibody, V domains shown) VH: EVQLLESGGGLVQPGGSLRLSCVGSGFNLKDYCMTWVRQAPGKGLEWVSAIVYSGGSTYYADSVKGRFTISRDNSKNTLYLQMNSLRAEDTAVYYCAKYTRGSYFYDAMDVWGQGTTVTVSS VL: EIVLTQSPGTLSLSPGERATLSCRASQSIGRSFLAWYQQKPGQAPRLLIYDASTRAADIPDRFSGSGSGTDFTLTINRLEPEDFAVYYCQQYYDWPPLTFGGGTKVEIKR . ~3000 RLU
